biological target: T1, human SIRPβ1 domain 1 (D1) Fc fusion (human, UniProt O00241 30-148); assay: Octet, IgG avid
T1 construct: Made in HEK293/T cells with a heterologous signal peptide; also called Human SIRPβ1 D1-Fc; Human SIRPβ1-Fc; not shown: C-terminal human IgG1 Fc
T1 sequence (O00241 30-148 limits assumed): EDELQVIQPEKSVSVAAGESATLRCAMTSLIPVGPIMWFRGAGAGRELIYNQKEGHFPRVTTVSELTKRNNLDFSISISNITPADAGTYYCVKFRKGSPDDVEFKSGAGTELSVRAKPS
readout type: pKd
One number for each entry, as −log10 of the molar value.

Recorded pKd, per entry:
SB-41 (antibody, V domains shown, IgG) VH: QLQLQESGPGLVKPSETLSLTCTVSGGSISSSSYYWGWIRQPPGKGLEWIGSIYYSGSTYYNPSLKSRVTISVDTSKNQFSLKLSSVTAADTAVYYCARVGQYPIYGMDVWGQGTTVTVSS VL: DIQMTQSPSSLSASVGDRVTITCQASQDITNYLNWYQQKPGKAPKLLIYDASNLETGVPSRFSGSGSGTDFTFTISSLQPEDIATYYCQQADNFPYTFGGGTKVEIK; 7.99
SB-37 (antibody, V domains shown, IgG) VH: QVQLVQSGAEVKKPGSSVKVSCKASGGTFSNYAISWVRQAPGQGLEWMGGIIPIFGTANYAQKFQGRVTITADESTSTAYMELSSLRSEDTAVYYCARSRWGASGYYYYMDVWGQGTMVTVSS VL: EIVLTQSPATLSLSPGERATLSCRASQSVSSYLAWYQQKPGQAPRLLIYDASNRATGIPARFSGSGSGTDFTLTISSLEPEDFAVYYCQQRHTYPLTFGGGTKVEIK; 8.12
SB-49 (antibody, V domains shown, IgG) VH: QLQLQESGPGLVKPSETLSLTCTVSGGSISSSDYYWGWIRQPPGKGLEWIGSIYYSGSTYYNPSLKSRVTISVDTSKNQFSLKLSSVTAADTAVYYCARGPTGYKDKWRYYYGMDVWGQGTTVTVSS VL: DIQMTQSPSSLSASVGDRVTITCQASQDITNYLNWYQQKPGKAPKLLIYDASNLETGVPSRFSGSGSGTDFTFTISSLQPEDIATYYCQQYFHPPLTFGGGTKVEIK; 8.36

Parameter requested: pKd. Apply to each item below.
1. SB-30 (antibody, V domains shown, IgG) VH: QVQLQESGPGLVKPSQTLSLTCTVSGGSISSGGYYWSWIRQHPGKGLEWIGYIYYSGSTVYNPSLKSRVTISVDTSKNQFSLKLSSVTAADTAVYYCAREGPGYPSYFDPWGQGTLVTVSS VL: EIVLTQSPGTLSLSPGERATLSCRASQSVSSSFLAWYQQKPGQAPRLLIYGASSRATGIPDRFSGSGSGTDFTLTISRLEPEDFAVYYCQQFLSSPWTFGGGTKVENQ
2. SB-47 (antibody, V domains shown, IgG) VH: QLQLQESGPGLVKPSETLSLTCTVSGGSISSSSYAWGWIRQPPGKGLEWIGSIYYSGSTYYNPSLKSRVTISVDTSKNQFSLKLSSVTAADTAVYYCARDLGHYDYWSGSRDYYYGMDVWGQGTTVTVSS VL: DIQMTQSPSSLSASVGDRVTITCQASQDISNYLNWYQQKPGKAPKLLIYDASNLETGVPSRFSGSGSGTDFTFTISSLQPEDIATYYCQQADYFPITFGGGTKVEIK

Output:
1. 8.10
2. 7.84
